Across several studies, compounds have been characterized by their IC50 on Aurora kinase A (Homo sapiens); a selection follows.
- target.or.test.system: Aurora kinase A (Homo sapiens)
- Sequence (O14965 whole entry): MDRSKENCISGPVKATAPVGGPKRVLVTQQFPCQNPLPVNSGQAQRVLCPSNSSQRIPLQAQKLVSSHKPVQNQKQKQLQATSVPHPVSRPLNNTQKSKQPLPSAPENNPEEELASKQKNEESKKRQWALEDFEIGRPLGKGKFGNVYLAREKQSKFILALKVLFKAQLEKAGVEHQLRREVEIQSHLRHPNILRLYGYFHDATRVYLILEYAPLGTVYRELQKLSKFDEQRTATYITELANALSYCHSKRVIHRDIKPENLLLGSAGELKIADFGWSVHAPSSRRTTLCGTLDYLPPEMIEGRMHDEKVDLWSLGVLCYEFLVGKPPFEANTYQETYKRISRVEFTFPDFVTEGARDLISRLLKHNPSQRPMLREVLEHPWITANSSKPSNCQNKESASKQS

stdin: Entry "NC(=O)c1nn(CC(F)(F)F)c2c1CCc1cnc(NC3CCCC3)nc1-2" needs its IC50 filled in; supply it.
stdout: > 10 µM

stdin: Entry "Cc1cn2c(-c3cn[nH]c3)cnc2c(Nc2cc(CN3CCN(C)CC3=O)ns2)n1" needs its IC50 filled in; supply it.
stdout: ≤ 0.004 µM

stdin: Entry "Nc1ncnc(Nc2ccc(OCc3ccccc3)c(Cl)c2)c1C(=O)NNC(=O)CCN1CCOCC1" needs its IC50 filled in; supply it.
stdout: > 100 µM

----------
Across several studies, molecules have been characterized by their IC50 on Aurora kinase A (Homo sapiens, UniProt O14965); a selection follows.

stdin: Provide IC50, system Aurora kinase A (Homo sapiens, UniProt O14965), entry "CNC(=O)c1nn(C)c2c1C(C)(C)Cc1cnc(Nc3ccc(CN(C)C)cc3)nc1-2"
stdout: > 5 µM

stdin: Provide IC50, system Aurora kinase A (Homo sapiens, UniProt O14965), entry "CNC(=O)c1cc(Oc2ccc(NC(=O)Nc3cc(C(C)(C)C)nn3-c3ccc4ncccc4c3)c(F)c2)ccn1"
stdout: > 5 µM

stdin: Provide IC50, system Aurora kinase A (Homo sapiens, UniProt O14965), entry "CN1CCN(C[C@@H](NC(=O)C[C@H]2CNC(=O)c3cc(-c4cccc(Cl)c4)cn32)C2CCCCC2)CC1"
stdout: > 10 µM

----------
Across several studies, compounds have been characterized by their pIC50 on Aurora kinase A (Homo sapiens, UniProt O14965); a selection follows.
- target.or.test.system: Aurora kinase A (Homo sapiens, UniProt O14965)
- Sequence (O14965 whole entry): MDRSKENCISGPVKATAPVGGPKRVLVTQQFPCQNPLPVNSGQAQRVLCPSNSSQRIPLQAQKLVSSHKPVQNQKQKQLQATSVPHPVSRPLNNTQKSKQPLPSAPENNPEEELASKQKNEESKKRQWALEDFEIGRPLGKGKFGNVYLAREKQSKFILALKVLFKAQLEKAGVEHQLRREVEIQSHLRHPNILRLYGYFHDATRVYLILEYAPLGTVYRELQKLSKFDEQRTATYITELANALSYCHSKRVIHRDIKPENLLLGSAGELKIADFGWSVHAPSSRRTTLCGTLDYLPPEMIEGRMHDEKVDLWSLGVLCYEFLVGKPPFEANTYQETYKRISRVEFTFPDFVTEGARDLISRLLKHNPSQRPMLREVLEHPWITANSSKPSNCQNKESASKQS
For clarity, pIC50 is expressed as the negative log10 of concentration in mol/L.

stdin: Provide pIC50, system Aurora kinase A (Homo sapiens, UniProt O14965), entry "COc1cc2c(Nc3cnc(NC(=O)c4ccc(C)c(Br)c4)nc3)ncnc2cc1OCCCN1CCOCC1"
stdout: 7.15

stdin: Provide pIC50, system Aurora kinase A (Homo sapiens, UniProt O14965), entry Cc1cn2c(-c3cnn(CC(=O)NCc4ncco4)c3)cnc2c(Nc2cc(CN3CCCC(C)C3)ns2)n1 (stereo unspecified)
stdout: 6.77

stdin: Provide pIC50, system Aurora kinase A (Homo sapiens, UniProt O14965), entry "CN1CCN(c2cccc(CNc3ncc4c(n3)-c3c(c(C(N)=O)nn3C)CC4)c2)CC1"
stdout: 5.67

stdin: Provide pIC50, system Aurora kinase A (Homo sapiens, UniProt O14965), entry "COc1cc2ncnc(N3CCN(CC(=O)N4CCCC4)CC3)c2cc1OC"
stdout: 4.01

stdin: Provide pIC50, system Aurora kinase A (Homo sapiens, UniProt O14965), entry "CC(C)(C)n1cc(-c2ccnc3[nH]ccc23)c(-c2ccc(NC(=O)Nc3ccccc3)cc2)n1"
stdout: 5.09

stdin: Provide pIC50, system Aurora kinase A (Homo sapiens, UniProt O14965), entry "COC(=O)c1ccc(Nc2nc(NCCN3CCOCC3)cc(Nc3cc(C)[nH]n3)n2)cc1"
stdout: 7.14

stdin: Provide pIC50, system Aurora kinase A (Homo sapiens, UniProt O14965), entry "CCOc1cc2ncnc(NCCc3ccc(NC(=O)Nc4cccc(Cl)c4)cc3)c2cc1F"
stdout: 7.57

stdin: Provide pIC50, system Aurora kinase A (Homo sapiens, UniProt O14965), entry "Cn1nc(C(N)=O)c2c1-c1nc(NCc3ccccn3)ncc1CC2"
stdout: 5.33

stdin: Provide pIC50, system Aurora kinase A (Homo sapiens, UniProt O14965), entry "CNC(=O)c1nn(C)c2c1C(C)(C)Cc1cnc(Nc3ccc(N4CCOCC4)cc3)nc1-2"
stdout: 6.19

stdin: Provide pIC50, system Aurora kinase A (Homo sapiens, UniProt O14965), entry "CNC(=O)c1nn(C)c2c1C(C)(C)Cc1cnc(Nc3ccc(OC4CCN(C)CC4)cc3)nc1-2"
stdout: 5.87

stdin: Provide pIC50, system Aurora kinase A (Homo sapiens, UniProt O14965), entry "COc1ccc(-c2nc3c(N4CCN(Cc5ccncc5)CC4)c(Br)cnc3[nH]2)cc1"
stdout: 8.05

stdin: Provide pIC50, system Aurora kinase A (Homo sapiens, UniProt O14965), entry "CN1CCN(C(=O)c2cc(Nc3ncc4cc(CO)n(C5CCCC5)c4n3)cn2C)CC1"
stdout: 7.70

stdin: Provide pIC50, system Aurora kinase A (Homo sapiens, UniProt O14965), entry "Cc1cc(Nc2nc(-c3ccccc3)nc3cc(Cl)ccc23)n[nH]1"
stdout: 6.88
